- ASSAYED_TARGET: VEGFR2 (Homo sapiens, UniProt P35968)
- Sequence (P35968 20-1356): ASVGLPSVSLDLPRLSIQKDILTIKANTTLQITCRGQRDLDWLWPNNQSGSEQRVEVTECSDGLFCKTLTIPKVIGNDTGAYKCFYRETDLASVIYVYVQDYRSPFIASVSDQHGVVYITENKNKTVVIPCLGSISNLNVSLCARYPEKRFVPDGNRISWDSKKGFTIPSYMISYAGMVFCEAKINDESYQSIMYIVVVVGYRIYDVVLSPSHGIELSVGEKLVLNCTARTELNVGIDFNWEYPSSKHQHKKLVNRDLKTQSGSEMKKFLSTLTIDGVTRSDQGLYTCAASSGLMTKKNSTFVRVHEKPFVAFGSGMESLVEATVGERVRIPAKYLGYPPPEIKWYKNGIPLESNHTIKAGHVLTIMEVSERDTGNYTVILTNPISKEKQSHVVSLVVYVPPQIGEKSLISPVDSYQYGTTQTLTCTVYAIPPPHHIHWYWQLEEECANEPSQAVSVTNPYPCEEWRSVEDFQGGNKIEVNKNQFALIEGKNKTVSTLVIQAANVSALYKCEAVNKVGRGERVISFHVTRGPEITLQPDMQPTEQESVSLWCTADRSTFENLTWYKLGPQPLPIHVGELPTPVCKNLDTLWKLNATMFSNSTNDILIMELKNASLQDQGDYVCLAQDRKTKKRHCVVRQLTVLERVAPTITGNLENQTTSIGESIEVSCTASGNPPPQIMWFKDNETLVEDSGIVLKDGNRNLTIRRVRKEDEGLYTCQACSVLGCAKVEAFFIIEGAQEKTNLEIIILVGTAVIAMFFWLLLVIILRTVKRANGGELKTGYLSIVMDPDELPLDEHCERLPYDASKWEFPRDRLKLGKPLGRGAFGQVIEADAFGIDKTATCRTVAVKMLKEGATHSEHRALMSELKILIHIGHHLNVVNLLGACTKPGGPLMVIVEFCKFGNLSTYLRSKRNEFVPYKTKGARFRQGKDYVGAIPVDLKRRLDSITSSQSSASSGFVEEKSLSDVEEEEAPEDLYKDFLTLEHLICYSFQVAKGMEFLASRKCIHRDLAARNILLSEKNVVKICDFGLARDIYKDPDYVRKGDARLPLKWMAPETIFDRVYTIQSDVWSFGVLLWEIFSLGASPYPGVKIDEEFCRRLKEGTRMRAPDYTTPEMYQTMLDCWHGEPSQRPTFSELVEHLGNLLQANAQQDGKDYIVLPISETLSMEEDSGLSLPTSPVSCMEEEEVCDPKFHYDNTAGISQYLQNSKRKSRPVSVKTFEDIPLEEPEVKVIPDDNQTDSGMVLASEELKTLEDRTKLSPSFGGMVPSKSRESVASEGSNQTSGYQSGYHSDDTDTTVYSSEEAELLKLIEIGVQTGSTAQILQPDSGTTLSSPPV
pIC50: −log10 of the molar value.
Kindly supply the reported pIC50 values for the records listed here.

Field: example entries. Status: answers known.
[[record]]
smiles_record = "COC(=O)c1ccc(C#Cc2ccnc3[nH]ccc23)cc1"
measured_attribute = "pIC50"
measured_result = "< 6.00"

[[record]]
smiles_record = "FC(F)(F)c1cccc(C#Cc2ccnc3[nH]ccc23)c1"
measured_attribute = "pIC50"
measured_result = "< 6.00"

[[record]]
smiles_record = "C(#Cc1ccnc2[nH]ccc12)c1cncnc1"
measured_attribute = "pIC50"
measured_result = "< 6.00"

[[record]]
smiles_record = "Cc1nc(-c2ccc(C#Cc3ccnc4[nH]ccc34)cc2)no1"
measured_attribute = "pIC50"
measured_result = "< 6.00"

[[record]]
smiles_record = "C(#Cc1ccnc2[nH]ccc12)c1cccc2[nH]ccc12"
measured_attribute = "pIC50"
measured_result = "< 6.00"

[[record]]
smiles_record = "C(#Cc1ccnc2[nH]ccc12)c1ccccn1"
measured_attribute = "pIC50"
measured_result = "< 6.00"

[[record]]
smiles_record = "N#Cc1ccc(C#Cc2ccnc3[nH]ccc23)cn1"
measured_attribute = "pIC50"
measured_result = "< 6.00"

[[record]]
smiles_record = "N#Cc1cncc(C#Cc2ccnc3[nH]ccc23)c1"
measured_attribute = "pIC50"
measured_result = "< 6.00"


Return reported pIC50 values for all items listed beneath this line.
1. C(#Cc1ccnc2[nH]ccc12)c1ccoc1
2. O=C(NCc1ccccc1C#Cc1ccnc2[nH]ccc12)C(F)(F)F

[A]
["< 6.00", "< 6.00"]
